test system: 186277-243-T-J2-PDC complex spheroid viability; assay: Anticancer human tumor 186277-243-T-J2-PDC patient-derived colon adenocarcinoma cell line growth inhibition; conditions: second compound 1 µM; first compound 0.03 µM; hits give low values
Measured Quantity: viability, T/C (%)

CCc1c2c(nc3ccc(O)cc13)-c1cc3c(c(=O)n1C2)COC(=O)[C@]3(O)CC + NC1CC1c1ccc(-c2cccc(O)c2)cc1 : 3.43
Nc1ncn(C2CC(O)C(CO)S2)c(=O)n1 (stereo unspecified) + NC1CCC(NC2CC2c2ccccc2)CC1 : 90
Nc1ccccc1NC(=O)c1ccc(CNC(=O)OCc2cccnc2)cc1 + NC1CC1c1ccc(-c2cccc(O)c2)cc1 : 94.1
CCN(c1cc(-c2ccc(CN3CCOCC3)cc2)cc(C(=O)NCc2c(C)cc(C)[nH]c2=O)c1C)C1CCOCC1 + NC1CCC(NC2CC2c2ccccc2)CC1 : 121
O=C(C=Cc1cccc(S(=O)(=O)Nc2ccccc2)c1)NO + NC1CC1c1ccc(-c2cccc(O)c2)cc1 : 101
O=C(C=Cc1cccc(S(=O)(=O)Nc2ccccc2)c1)NO + NC1CCC(NC2CC2c2ccccc2)CC1 : 105
Nc1ccn(C2OC(CO)C(O)C2(F)F)c(=O)n1 (stereo unspecified) + NC1CCC(NC2CC2c2ccccc2)CC1 : 18
Nc1ccn(C2OC(CO)C(O)C2(F)F)c(=O)n1 (stereo unspecified) + NC1CC1c1ccc(-c2cccc(O)c2)cc1 : 12.2
CCc1c2c(nc3ccc(O)cc13)-c1cc3c(c(=O)n1C2)COC(=O)[C@]3(O)CC + NC1CCC(NC2CC2c2ccccc2)CC1 : 20.4
Nc1ccccc1NC(=O)c1ccc(CNC(=O)OCc2cccnc2)cc1 + NC1CCC(NC2CC2c2ccccc2)CC1 : 113
COc1cc(C2c3cc4c(cc3C(OC3OC5COC(C)OC5C(O)C3O)C3COC(=O)C23)OCO4)cc(OC)c1O (stereo unspecified) + NC1CCC(NC2CC2c2ccccc2)CC1 : 111
NS(=O)(=O)OCC1CC(n2ccc3c(NC4CCc5ccccc54)ncnc32)CC1O (stereo unspecified) + NC1CC1c1ccc(-c2cccc(O)c2)cc1 : 96.8
COc1cc(C2c3cc4c(cc3C(OC3OC5COC(C)OC5C(O)C3O)C3COC(=O)C23)OCO4)cc(OC)c1O (stereo unspecified) + NC1CC1c1ccc(-c2cccc(O)c2)cc1 : 134
Nc1ncn(C2CC(O)C(CO)S2)c(=O)n1 (stereo unspecified) + NC1CC1c1ccc(-c2cccc(O)c2)cc1 : 128
NS(=O)(=O)OCC1CC(n2ccc3c(NC4CCc5ccccc54)ncnc32)CC1O (stereo unspecified) + NC1CCC(NC2CC2c2ccccc2)CC1 : 103
CCN(c1cc(-c2ccc(CN3CCOCC3)cc2)cc(C(=O)NCc2c(C)cc(C)[nH]c2=O)c1C)C1CCOCC1 + NC1CC1c1ccc(-c2cccc(O)c2)cc1 : 111

###

system: 186277-243-T-J2-PDC complex spheroid viability; test: Anticancer human tumor 186277-243-T-J2-PDC cell line growth inhibition; conditions: second compound 1 µM; first compound 0.0949 µM; active means viability on the fitted dose curve at most 10% of control; inactive means the rest;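 note: 7 day exposure to compounds; 100% = DMSO vehicle control viability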
Outcomes: 1 (active), -1 (inactive)

NS(=O)(=O)OCC1CC(n2ccc3c(NC4CCc5ccccc54)ncnc32)CC1O (stereo unspecified) + NC1CCC(NC2CC2c2ccccc2)CC1 : -1
COc1cc(C2c3cc4c(cc3C(OC3OC5COC(C)OC5C(O)C3O)C3COC(=O)C23)OCO4)cc(OC)c1O (stereo unspecified) + NC1CC1c1ccc(-c2cccc(O)c2)cc1 : -1
CCc1c2c(nc3ccc(O)cc13)-c1cc3c(c(=O)n1C2)COC(=O)[C@]3(O)CC + NC1CC1c1ccc(-c2cccc(O)c2)cc1 : 1
Nc1ccn(C2OC(CO)C(O)C2(F)F)c(=O)n1 (stereo unspecified) + NC1CCC(NC2CC2c2ccccc2)CC1 : -1
COc1cc(C2c3cc4c(cc3C(OC3OC5COC(C)OC5C(O)C3O)C3COC(=O)C23)OCO4)cc(OC)c1O (stereo unspecified) + NC1CCC(NC2CC2c2ccccc2)CC1 : -1
O=C(C=Cc1cccc(S(=O)(=O)Nc2ccccc2)c1)NO + NC1CCC(NC2CC2c2ccccc2)CC1 : -1
CCN(c1cc(-c2ccc(CN3CCOCC3)cc2)cc(C(=O)NCc2c(C)cc(C)[nH]c2=O)c1C)C1CCOCC1 + NC1CC1c1ccc(-c2cccc(O)c2)cc1 : -1
NS(=O)(=O)OCC1CC(n2ccc3c(NC4CCc5ccccc54)ncnc32)CC1O (stereo unspecified) + NC1CC1c1ccc(-c2cccc(O)c2)cc1 : -1
CCc1c2c(nc3ccc(O)cc13)-c1cc3c(c(=O)n1C2)COC(=O)[C@]3(O)CC + NC1CCC(NC2CC2c2ccccc2)CC1 : 1
CCN(c1cc(-c2ccc(CN3CCOCC3)cc2)cc(C(=O)NCc2c(C)cc(C)[nH]c2=O)c1C)C1CCOCC1 + NC1CCC(NC2CC2c2ccccc2)CC1 : -1
Nc1ncn(C2CC(O)C(CO)S2)c(=O)n1 (stereo unspecified) + NC1CCC(NC2CC2c2ccccc2)CC1 : -1
Nc1ccn(C2OC(CO)C(O)C2(F)F)c(=O)n1 (stereo unspecified) + NC1CC1c1ccc(-c2cccc(O)c2)cc1 : -1
Nc1ncn(C2CC(O)C(CO)S2)c(=O)n1 (stereo unspecified) + NC1CC1c1ccc(-c2cccc(O)c2)cc1 : -1
Nc1ccccc1NC(=O)c1ccc(CNC(=O)OCc2cccnc2)cc1 + NC1CC1c1ccc(-c2cccc(O)c2)cc1 : -1
O=C(C=Cc1cccc(S(=O)(=O)Nc2ccccc2)c1)NO + NC1CC1c1ccc(-c2cccc(O)c2)cc1 : -1
Nc1ccccc1NC(=O)c1ccc(CNC(=O)OCc2cccnc2)cc1 + NC1CCC(NC2CC2c2ccccc2)CC1 : -1
